System: 377384-186-R-J1-PDC complex spheroid viability;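 note: spheroids exposed to compounds for seven days before readout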
Assay: Anticancer human tumor 377384-186-R-J1-PDC patient-derived pancreatic carcinoma cell line growth inhibition [RAS]
Conditions: second compound 0.00949 µM; first compound 0.0316 µM; stronger effect = lower value
# strict inequality: viability, T/C < 4% yields Condition met, everything else yields Condition not met

COMPOUND | DISCRETE_LABEL
CC(=O)OC12COC1CC(O)C1(C)C(=O)C(O)C3=C(C)C(OC(=O)C(O)C(NC(=O)OC(C)(C)C)c4ccccc4)CC(O)(C(OC(=O)c4ccccc4)C21)C3(C)C (stereo not drawn) + CCn1c(-c2cc(N3CCN(C)CC3)cnc2C(C)OC)c2c3cc(ccc31)-c1csc(n1)CC(NC(=O)C1CC1C)C(=O)N1CCCC(N1)C(=O)OCC(C)(C)C2 | Condition met
CC1(O)CCCC1n1c(=O)c(C(F)F)cc2cnc(NC3CCN(S(C)(=O)=O)CC3)nc21 (stereo not drawn) + CCn1c(-c2cc(N3CCN(C)CC3)cnc2C(C)OC)c2c3cc(ccc31)-c1csc(n1)CC(NC(=O)C1CC1C)C(=O)N1CCCC(N1)C(=O)OCC(C)(C)C2 | Condition not met
Nc1ccn(C2OC(CO)C(O)C2(F)F)c(=O)n1 (stereo not drawn) + CCn1c(-c2cc(N3CCN(C)CC3)cnc2C(C)OC)c2c3cc(ccc31)-c1csc(n1)CC(NC(=O)C1CC1C)C(=O)N1CCCC(N1)C(=O)OCC(C)(C)C2 | Condition met
C=CC(=O)N1CCN(c2nc(OCC3CCCN3C)nc3c(F)c(-c4nc(N)cc(C)c4C(F)(F)F)c(Cl)cc23)C(C)C1 (stereo not drawn) + CCn1c(-c2cccnc2C(C)OC)c2c3cc(ccc31)N1CCOC(CC(NC(=O)C(C(C)C)N(C)C(=O)C3(F)CCN(C(=O)C#CC(C)(C)N(C)C)CC3)C(=O)N3CCCC(N3)C(=O)OCC(C)(C)C2)C1 | Condition not met
C=CC(=O)Nc1cc(Nc2nccc(-c3cn(C)c4ccccc34)n2)c(OC)cc1N(C)CCN(C)C + CCn1c(-c2cccnc2C(C)OC)c2c3cc(ccc31)N1CCOC(CC(NC(=O)C(C(C)C)N(C)C(=O)C3(F)CCN(C(=O)C#CC(C)(C)N(C)C)CC3)C(=O)N3CCCC(N3)C(=O)OCC(C)(C)C2)C1 | Condition not met
Nc1ccn(C2OC(CO)C(O)C2(F)F)c(=O)n1 (stereo not drawn) + CCn1c(-c2cccnc2C(C)OC)c2c3cc(ccc31)N1CCOC(CC(NC(=O)C(C(C)C)N(C)C(=O)C3(F)CCN(C(=O)C#CC(C)(C)N(C)C)CC3)C(=O)N3CCCC(N3)C(=O)OCC(C)(C)C2)C1 | Condition not met
C=CC(=O)Nc1cc(Nc2nccc(-c3cn(C)c4ccccc34)n2)c(OC)cc1N(C)CCN(C)C + CCn1c(-c2cc(N3CCN(C)CC3)cnc2C(C)OC)c2c3cc(ccc31)-c1csc(n1)CC(NC(=O)C1CC1C)C(=O)N1CCCC(N1)C(=O)OCC(C)(C)C2 | Condition met

src = PubChem BioAssay AID2060903
